Catalogue of sequences with associated calcium oscillation score
- subject-of-test: Tau
- test: rat primary cortical neurons, FLIPR, 25 uM ASO
Bases are written 5' to 3'; sugars and linkages follow in the same order, as letters with counts (s phosphorothioate, o phosphodiester; PS: all linkages phosphorothioate). The collection does not say whether C is 5-methylated. l = locked nucleic acid (LNA); d = 2'-deoxy (DNA)

sequence-text: CCTTTTCATGTTAAATC (sugars l4 d9 l4, PS)
calcium oscillation score: 86.6 % of control

sequence-text: ACTTTATCCCTCCATGAT (sugars l3 d11 l4, PS)
calcium oscillation score: 47.4 % of control

sequence-text: CACTCTAACATCTTAG (sugars l4 d8 l4, PS)
calcium oscillation score: 77.6 % of control

sequence-text: CACTCTCTGCATATATA (sugars l4 d10 l3, PS)
calcium oscillation score: 48 % of control

sequence-text: TGTGATGCAGGAGTTG (sugars l3 d10 l3, PS)
calcium oscillation score: 28.7 % of control

sequence-text: TCATCTTTTCTAGAAC (sugars l4 d8 l4, PS)
calcium oscillation score: 77.3 % of control

sequence-text: TTAACCAATTAACCGAACTG (sugars l3 d14 l3, PS)
calcium oscillation score: 122 % of control

sequence-text: CTACTTTATTCCCTTAACAA (sugars l2 d15 l3, PS)
calcium oscillation score: 86.8 % of control

sequence-text: GCACCCACTTTCCTAATT (sugars l2 d14 l2, PS)
calcium oscillation score: 51.6 % of control

sequence-text: GAAATCCCTCTACTCCA (sugars l3 d12 l2, PS)
calcium oscillation score: 73.7 % of control

sequence-text: TGATCTTAGGCTGGC (sugars l3 d9 l3, PS)
calcium oscillation score: 44.1 % of control

====

Catalogue of sequences with associated calcium oscillation score
- subject-of-test: Tau
- test: rat primary cortical neurons, FLIPR, 25 uM ASO
Bases are written 5' to 3'; sugars and linkages follow in the same order, as letters with counts (s phosphorothioate, o phosphodiester; PS: all linkages phosphorothioate). The collection does not say whether C is 5-methylated. l = locked nucleic acid (LNA); d = 2'-deoxy (DNA)

sequence-text: CAGTAACATCCATTTCT (sugars l4 d11 l2, PS)
calcium oscillation score: 86.2 % of control
//
sequence-text: TTCGAAACCAAGGTCCCACC (sugars l3 d14 l3, PS)
calcium oscillation score: 27.5 % of control
//
sequence-text: CCTGGTTTATGATGGATGTT (sugars l3 d14 l3, PS)
calcium oscillation score: 0 % of control
//
sequence-text: TTGGAGTGCTCTTAGCATCA (sugars l3 d14 l3, PS)
calcium oscillation score: 7.78 % of control
//
sequence-text: CCATTTTCCATATAATTTT (sugars l3 d12 l4, PS)
calcium oscillation score: 79.3 % of control
//
sequence-text: ACCTCCTGGTTTAT (sugars l3 d8 l3, PS)
calcium oscillation score: 89.7 % of control
//
sequence-text: TCAATTTGGAAAGATGAAAT (sugars l3 d14 l3, PS)
calcium oscillation score: 0 % of control
//
sequence-text: GCAAACAGGATACAGT (sugars l3 d10 l3, PS)
calcium oscillation score: 0 % of control
//
sequence-text: CCTTTTCTACTCTACTCT (sugars l3 d13 l2, PS)
calcium oscillation score: 63.3 % of control
//
sequence-text: ATCCATTAATTTAGCC (sugars l3 d10 l3, PS)
calcium oscillation score: 76.7 % of control
//
sequence-text: TACCTTTTTATTTCCTC (sugars l4 d11 l2, PS)
calcium oscillation score: 41.6 % of control
